Test system: IL-6
Procedure Summary: IL-6 production in supernatants of TNF-α-stimulated HUVECs, ELISA
Type: cell-based, human
Recorded Conditions: 10 μmol/L pretreatment, 5 ng/ml TNF-α
Endpoint Name: effect on TNF-α-induced IL-6 production (in words)

>  <Compound Smiles>
CC(C)(C)c1ccc(C(c2c[nH]c3ccccc23)c2c[nH]c3ccccc23)cc1

>  <Target Or System>
IL-6

>  <Readout Value>
inhibited

$$$$
>  <Compound Smiles>
c1ccc(-c2ccc(C(c3c[nH]c4ccccc34)c3c[nH]c4ccccc34)cc2)cc1

>  <Target Or System>
IL-6

>  <Readout Value>
inhibited

$$$$
